substrate: CCCC(=O)Oc1ccc([N+](=O)[O-])cc1; experiment: purified protein; format: biochemical, Falsihalocynthiibacter arcticus; details: free enzyme, 20 mM Tris-HCl pH 8.0, 25 °C (standard assay)
Listed proteins paired with reported Km

Recorded results for 3 proteins are shown here.
Protein: HaSGNH1 (Falsihalocynthiibacter arcticus; M86E) (protein, ORF cloned from genomic DNA (primer starts ATG AGT GCT CGC GTT: MSARV), pET-21a, N-terminal His6 tag, E. coli BL21(DE3)) MSARVQAETVVIAALGDSLTQGYGLPQEDGLVAQLQGWLDENNHDIRLINAGVSGDTTAGGRSRIEWTLTPDVDAVIVELGGNDMERGIAPSDSRKNLTEILEILQSRDLPVLLVGLPSANNFGPEFKAEFDDMFPALSTDFETLLYPDFFTSFRTKLNDTSALTTYMQDDAIHPNAKGVAAIVEDFGPLVVELAQQTQE
Measured Endpoint: Km
Endpoint Result: 1.06 (± 0.23) mM
--
Protein: HaSGNH1 (Falsihalocynthiibacter arcticus) (protein, ORF cloned from genomic DNA (primer starts ATG AGT GCT CGC GTT: MSARV), pET-21a, N-terminal His6 tag, E. coli BL21(DE3)) MSARVQAETVVIAALGDSLTQGYGLPQEDGLVAQLQGWLDENNHDIRLINAGVSGDTTAGGRSRIEWTLTPDVDAVIVELGGNDMMRGIAPSDSRKNLTEILEILQSRDLPVLLVGLPSANNFGPEFKAEFDDMFPALSTDFETLLYPDFFTSFRTKLNDTSALTTYMQDDAIHPNAKGVAAIVEDFGPLVVELAQQTQE
Measured Endpoint: Km
Endpoint Result: 0.80 (± 0.23) mM
--
Protein: HaSGNH1 (Falsihalocynthiibacter arcticus; R87L) (protein, ORF cloned from genomic DNA (primer starts ATG AGT GCT CGC GTT: MSARV), pET-21a, N-terminal His6 tag, E. coli BL21(DE3)) MSARVQAETVVIAALGDSLTQGYGLPQEDGLVAQLQGWLDENNHDIRLINAGVSGDTTAGGRSRIEWTLTPDVDAVIVELGGNDMMLGIAPSDSRKNLTEILEILQSRDLPVLLVGLPSANNFGPEFKAEFDDMFPALSTDFETLLYPDFFTSFRTKLNDTSALTTYMQDDAIHPNAKGVAAIVEDFGPLVVELAQQTQE
Measured Endpoint: Km
Endpoint Result: 0.68 (± 0.10) mM

Consider now this further protein.
Which Km is reported for this protein? HaSGNH1 (Falsihalocynthiibacter arcticus; M86R) (protein, ORF cloned from genomic DNA (primer starts ATG AGT GCT CGC GTT: MSARV), pET-21a, N-terminal His6 tag, E. coli BL21(DE3)) MSARVQAETVVIAALGDSLTQGYGLPQEDGLVAQLQGWLDENNHDIRLINAGVSGDTTAGGRSRIEWTLTPDVDAVIVELGGNDMRRGIAPSDSRKNLTEILEILQSRDLPVLLVGLPSANNFGPEFKAEFDDMFPALSTDFETLLYPDFFTSFRTKLNDTSALTTYMQDDAIHPNAKGVAAIVEDFGPLVVELAQQTQE
1.26 (± 0.17) mM
